Test system: glmS ribozyme
Assay Comment: Electrophoretic in-line probing of analog binding to glmS ribozyme
Outcome Measure: Activity by electrophoretic in-line probing

Some entries whose results are on file:
COC1OC(COP(=O)(O)O)C(O)C(O)C1N (stereo not shown): No
N[C@H]1C(O)O[C@H](COP(=O)(O)O)[C@@H](O)[C@@H]1O (stereo partly shown) [Gln6P, glucosamine-6-phosphate]: Yes
C[N+](C)(C)C1C(O)OC(COP(=O)(O)O)C(O)C1O (stereo not shown): No
CNC1C(O)OC(COP(=O)(O)O)C(O)C1O (stereo not shown): Yes
N[C@@H]1[C@@H](O)[C@H](O)[C@@H](COP(=O)(O)O)O[C@@H]1O: Yes

Next item in the queue.
Fill in the blank: the reported Activity by electrophoretic in-line probing of N[C@H]1C(O)O[C@H](CO)[C@@H](O)[C@@H]1O (stereo partly shown) is ____.
Yes
